# measured on: Retinoic acid receptor RXR-alpha (Homo sapiens)
# test description: qHTS assay for small molecule agonists of retinoid X receptor alpha signaling (AID 588544)
# experimental setup: HEK293T RXRa-UAS-bla, beta-lactamase reporter, 18 h; series mostly up to 76.7 µM
Inconclusive results are not listed. The source made the active and inactive calls. Calls follow the shape of the full dose curve.
Outcomes: true (1) = active, false (0) = inactive

1. N#CN    false (0)
2. [O]=[Cd]    false (0)
3. S=C=S    false (0)
4. CCCCCl    false (0)
5. CC(C)(C)c1cc(O)ccc1O    false (0)
6. CCOC(=O)c1ccccc1C(=O)OCC    false (0)
7. ClC(Cl)(Cl)Cl    false (0)
8. ClCC1CO1 (stereo not drawn)    false (0)
9. CCCCCCCCOC(=O)c1ccccc1C(=O)OCCCCCCCC    false (0)
10. O=c1[nH]c(=O)n(Cl)c(=O)n1Cl    false (0)
11. O=[N+]([O-])c1ccccc1    false (0)
12. C[C@]12CCC(=O)C[C@@H]1CC[C@@H]1[C@@H]2CC[C@]2(C)[C@@H](O)CC[C@@H]12    true (1)
13. ClC=C(Cl)Cl    false (0)
14. O=C(O)C(Cl)(Cl)Cl    false (0)
15. O=C/C=C/c1ccccc1    false (0)
16. CC(C)CCON=O    false (0)
17. O=CC=O    false (0)
18. O=C1C=CC(=O)C=C1    false (0)

Data provenance is PubChem BioAssay (NCATS).
